target.under.test: recombinant human MGAT2 (Homo sapiens (Human))
method.description: Measurement of human MGAT2 inhibitory activity
Type: biochemical
condition.parameters: read-out: IC50 (concentration exhibiting 50% enzyme inhibition), Table 53
measured.attribute: IC50 (nM)
Value expressed in nM; do not type the unit.

Data request: Need IC50, item `CS(=O)(=O)CC(=O)Nc1c2c(nn1CCC1CC1)C[C@@]1(CCc3cc(C4CC4)ccc31)NC2=O`
Data returned: 6

Data request: What value of measured IC50 is listed for `Cc1cc(-n2nc3c(c2NC(=O)CS(C)(=O)=O)C(=O)N[C@@]2(CCOc4cc(C5CC5)ccc42)C3)no1` ?
Data returned: 1.17

Data request: Form field: reported IC50 of `COCCCn1nc2c(c1-c1nn[nH]n1)C(=O)N[C@@]1(CCc3cc(OCCCC(F)(F)F)ccc31)C2`
Data returned: 47

Data request: For the compound `CS(=O)(=O)CC(=O)Nc1c2c(nn1CCCOC(F)(F)F)C[C@]1(CCOc3cc(OCC(F)(F)F)ccc31)NC2=O` , what IC50 is on record?
Data returned: 2.9

Data request: Returns the measured IC50 for the input compound. Input: `N#Cc1ccc(-n2nc3c(c2C(=O)NS(=O)(=O)C2CC2)C(=O)N[C@]2(CCc4cc(OCC(F)(F)F)ccc42)C3)nc1`
Data returned: 14

Data request: Which measured IC50 value corresponds to `Cc1cc(-n2nc3c(c2NC(=O)CS(C)(=O)=O)C(=O)N[C@@]2(CCc4cc(OCC(F)(F)F)ccc42)C3)nn1C` ?
Data returned: 3.78

Data request: Look at this compound and give its reported IC50. `CC(C)OC1CN(c2ccc3c(c2)CC[C@@]32Cc3nn(CCC4CC4)c(NC(=O)CS(C)(=O)=O)c3C(=O)N2)C1`
Data returned: 40

Data request: Query (compound): `Cc1ccc(-n2nc3c(c2C(=O)NCC#N)C(=O)N[C@@]2(CCc4cc(OCC(F)(F)F)ccc42)C3)nc1` ; field requested: IC50
Data returned: 6.79

Data request: Can you look up the measured IC50 of `CS(=O)(=O)CC(=O)Nc1c2c(nn1-c1ccc(C3CC3)nn1)C[C@]1(CCc3cc(OCC(F)(F)F)ccc31)NC2=O` for me?
Data returned: 2.68

Data request: Please look up its IC50: C[S+]([O-])CC(=O)Nc1c2c(nn1CCC1CC1)C[C@]1(CCc3cc(OCC(F)(F)F)ccc31)NC2=O (stereo partly shown)
Data returned: 42

Data request: Value lookup for IC50; key = `CS(=O)(=O)CC(=O)Nc1c2c(nn1-c1ccc(F)c(F)c1)C[C@]1(CCOc3cc(C4CC4)ccc31)NC2=O`
Data returned: 2.21

Data request: Recorded IC50 of `CC(C)(F)COc1ccc2c(c1)CC[C@@]21Cc2nn(CCCOC(F)(F)F)c(NC(=O)CS(C)(=O)=O)c2C(=O)N1` , please.
Data returned: 5.34

----------
Give measured pIC50 for each item. Keep answers brief.
target.under.test: recombinant human MGAT2 (Homo sapiens (Human), UniProt Q3SYC2)
Sequence (Q3SYC2 whole entry): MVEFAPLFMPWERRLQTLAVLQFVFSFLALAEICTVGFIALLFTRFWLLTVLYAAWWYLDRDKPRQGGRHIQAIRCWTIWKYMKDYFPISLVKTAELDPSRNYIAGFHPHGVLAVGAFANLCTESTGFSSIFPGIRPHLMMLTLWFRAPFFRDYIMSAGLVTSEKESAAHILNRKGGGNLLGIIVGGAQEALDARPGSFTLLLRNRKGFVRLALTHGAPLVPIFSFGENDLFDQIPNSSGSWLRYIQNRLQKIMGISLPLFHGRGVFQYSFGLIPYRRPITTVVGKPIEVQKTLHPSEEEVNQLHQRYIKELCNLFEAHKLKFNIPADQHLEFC
method.description: Measurement of human MGAT2 inhibitory activity
Assay type: biochemical
condition.parameters: read-out: IC50 (concentration exhibiting 50% enzyme inhibition), Table 53
Expect pIC50 as a plain number equal to -log10 of the molar concentration.

Data request: What value of measured pIC50 is listed for `N#Cc1ccc(-n2nc3c(c2C(=O)NCC2(CO)CC2)C(=O)N[C@@]2(CCc4cc(OCC(F)(F)F)ccc42)C3)nc1` ?
Data returned: 8.24

Data request: Look up pIC50: `CS(=O)(=O)CC(=O)Nc1c2c(nn1CCCOC(F)F)C[C@@]1(CCc3cc(CCC(F)(F)F)ccc31)NC2=O`
Data returned: 8.94

Data request: Quick one: pIC50 of `Cc1ccc(-n2nc3c(c2NC(=O)CS(C)(=O)=O)C(=O)N[C@@]2(CCOc4cc(OCC(F)(F)F)ccc42)C3)cc1F` ?
Data returned: 8.74

Data request: Suppose we examine the compound `N#Cc1ccc(-n2nc3c(c2C(=O)NCC(F)(F)F)C(=O)N[C@@]2(CCc4cc(OCC(F)(F)F)ccc42)C3)nc1` ; what pIC50 value has been reported?
Data returned: 7.71

Data request: What value of pIC50 has been recorded for this entry: `Cc1ccc(-n2nc3c(c2C(=O)NCCS(C)(=O)=O)C(=O)N[C@@]2(CCc4cc(OCC(F)(F)F)ccc42)C3)nc1`
Data returned: 7.13

Data request: Which pIC50 value is on record for `CS(=O)(=O)CC(=O)Nc1c2c(nn1CCCOC(F)F)C[C@@]1(CCc3cc(OCC(F)(F)F)ccc31)NC2=O` ?
Data returned: 8.81

Data request: What does the record list as pIC50 for `CS(=O)(=O)CC(=O)Nc1c2c(nn1CCC1CC1)C[C@@]1(CCc3cc(OCC4CC(F)(F)C4)ccc31)NC2=O` ?
Data returned: 8.60

Data request: Data request, read-out pIC50, for `CS(=O)(=O)CC(=O)Nc1c2c(nn1-c1ccc(C(F)F)nn1)C[C@]1(CCc3cc(OCCCC(F)(F)F)ccc31)NC2=O`
Data returned: 9.55

Data request: Can you look up the measured pIC50 of `C[C@@]1(c2ccc(OCC(F)(F)F)cc2F)Cc2nn(-c3ccc(C#N)cn3)c(NC(=O)CS(C)(=O)=O)c2C(=O)N1` for me?
Data returned: 8.37

Data request: Record request: pIC50 value, item `CS(=O)(=O)CC(=O)Nc1c2c(nn1CCC1CC1)C[C@@]1(CCc3cc(N4CC(n5cccn5)C4)ccc31)NC2=O`
Data returned: 7.32

Data request: Returns the measured pIC50 for the input compound. Input: `Cc1ccc(-n2nc3c(c2NC(=O)CS(C)(=O)=O)C(=O)N[C@@]2(CCOc4cc(N5CC(F)(F)C5)ccc42)C3)nc1`
Data returned: 8.25

Data request: Sample `Cc1ccc(-n2nc3c(c2NC(=O)CS(C)(=O)=O)C(=O)N[C@@]2(CCOc4cc(Cl)ccc42)C3)nc1` — what was its pIC50?
Data returned: 8.31

Data request: I am curious: what pIC50 value has been reported for `Cc1ccc(-n2nc3c(c2C(=O)NS(=O)(=O)CCC(F)(F)F)C(=O)N[C@@]2(CCc4cc(OCC(F)(F)F)ccc42)C3)nc1` ?
Data returned: 7.33

Data request: # input compound: `Cc1ccc(-n2nc3c(c2C(=O)NCC2(O)CC2)C(=O)N[C@@]2(CCc4cc(OCC(F)(F)F)ccc42)C3)cc1F` ; wanted: its pIC50
Data returned: 8.16

Data request: Find the recorded pIC50 belonging to `COCCCn1nc2c(c1NC(=O)CS(C)(=O)=O)C(=O)N[C@]1(CCc3cc(OCC(F)(F)F)ccc31)C2` and report it.
Data returned: 7.77
